- ASSAY_INFO: Selectivity index, ratio of CC50 for cytotoxicity against human MT4 cells to EC50 for antiviral activity against HIV2 ROD infected in human MT4 cells
- Format: toxicity, cell-based
- EXPERIMENTAL_PARAMETERS: read-out: Ratio CC50/EC50
MEASURE: selectivity ratio
Answer field: number only, no words.

Some solved entries appear below for comparison.
COc1ccc(N(C)C(=O)[C@H](Cc2cc(F)cc(F)c2)NC(=O)CN(Cc2ccc(C#N)cc2)C(=O)Cc2ccc(B3OC(C)(C)C(C)(C)O3)cc2)cc1    3
COc1ccc(N(C)C(=O)[C@H](Cc2cc(F)cc(F)c2)NC(=O)CN2CCN(S(=O)(=O)c3ccccc3F)CC2)cc1    2010
COc1ccc(N(C)C(=O)[C@H](Cc2cc(F)cc(F)c2)NC(=O)CN(Cc2ccc(C#N)cc2)C(=O)Cc2c[nH]c3ccc(Br)cc23)cc1    6
COc1ccc(N(C)C(=O)[C@H](Cc2cc(F)cc(F)c2)NC(=O)CN2CCN(S(=O)(=O)c3ccc(NC(C)=O)cc3)CC2)cc1    3050
COc1ccc(-n2c(SCc3cncs3)nnc2[C@H](Cc2ccccc2)NC(=O)Cc2c(C)[nH]c3ccccc23)cc1    9

Per the records, this compound ( COc1ccc(-n2c(SCCS(C)(=O)=O)nnc2[C@H](Cc2ccccc2)NC(=O)Cc2c(C)[nH]c3ccccc23)cc1 ) has selectivity ratio equal to 10

Per the records, this compound ( COc1ccc(-n2c(SCCC3OCCCO3)nnc2[C@H](Cc2ccccc2)NC(=O)Cc2c(C)[nH]c3ccccc23)cc1 ) has selectivity ratio equal to 5

Per the records, this compound ( COc1ccc(N(C)C(=O)[C@H](Cc2cc(F)cc(F)c2)NC(=O)CN2CCN(C(=O)c3ccc(NC(=O)C4CC4)cc3)CC2=O)cc1 ) has selectivity ratio equal to 5.87

Per the records, this compound ( COc1ccc(N(C)C(=O)[C@H](Cc2ccccc2)NC(=O)Cn2ccc(NC(=O)c3ccc(C#N)cc3)cc2=O)cc1 ) has selectivity ratio equal to 7.69

The reported measurements were obtained from ChEMBL document CHEMBL5344428.
